Test: chemical genetic growth profiling, strain panel (AID 1159580);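 note: tested at 20 µM; growth read once vehicle control cultures reached saturation at 30 °C; 1 = growth at the plate median or of vehicle wells; lower values mean less growth of the strain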
Conditions: S. cerevisiae deletion strains, growth OD, locus YNL233W, strain BNI4, hits give low values
About 2,000 (36%) of roughly 5,500 compounds were called active. Inconclusive results (about 18%) are left out. This is one part of the list.
For each record, check the reported normalized growth: if it is below 1 write rule met, else write rule not met.

Here's an entry: CC12CCC3C(CC3(C)C)C(C)(CCC1=O)O2 (centres undefined) . Is its normalized growth below 1? rule not met

Please check: normalized growth for `NS(=O)(=O)c1cc2c(cc1Cl)NC(CSCc1ccccc1)=NS2(=O)=O` , strictly under 1 or not? rule met

Is the reported normalized growth for CC(Cc1cccc(C(F)(F)F)c1)NCCOC(=O)c1ccccc1 (centres undefined) strictly below 1? rule met

Given the entry CC1(C)CC2C1CC[C@]1(CBr)CCC3C(CC(=O)O)C(=O)O[C@@]32C1 (some centres undefined) , would its reported normalized growth be below 1? rule not met

Decide: normalized growth of `CC(C)=CCc1c2c(c3occ(-c4ccc(O)c(O)c4)c(=O)c3c1O)C=CC(C)(C)O2` strictly below 1? rule met

###

Listing: normalized growth of selected compounds
Experiment: chemical genetic growth profiling, strain panel (AID 1159580);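 note: tested at 20 µM; growth read once vehicle control cultures reached saturation at 30 °C; 1 = growth at the plate median or of vehicle wells; lower values mean less growth of the strain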
Details: S. cerevisiae deletion strains, growth OD, locus YER016W, strain bim1, hits give low values
Out of some 5,500 compounds screened, about 2,000 (36%) were called active. Roughly 18% stayed inconclusive and do not appear here. The list shows a part of the results.
# output: bare number, no unit

# compound, normalized growth
data = [
    ("C[C@H]1c2cccc(O)c2C(O)=C2C(=O)[C@]3(O)C(O)=C(C(N)=O)C(=O)[C@@H](N(C)C)[C@@H]3[C@@H](O)[C@@H]21", 1.01),
]

GET /value?item= CC(N=C(NC#N)Nc1ccncc1)C(C)(C)C (stereo not given) &field=normalized growth returns 0.986

So for `NC1=NCCN1CC(=O)O` , the logged normalized growth turned out to be 1.03

The measured normalized growth associated with `C[n+]1ccccc1/C=N/O` reads 0.991

###

Experiment: chemical genetic growth profiling, strain panel (AID 1159580);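 note: tested at 20 µM; growth read once vehicle control cultures reached saturation at 30 °C; 1 = growth at the plate median or of vehicle wells; lower values mean less growth of the strain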
Conditions: S. cerevisiae deletion strains, growth OD, locus YAL013W, strain DEP1, hits give low values
In all, about 5,500 compounds went through this assay and about 2,000 (36%) were called active. Not shown: some 18% with an inconclusive outcome. The list shows a part of the results.
readout-name: normalized growth
The answer should be a number; do not append a unit.

Answered cases to consult:
# compound, normalized growth
measured = [
    ("CC(C)=CC1C(C(=O)O)C1(C)C (stereo not given)", 0.988),
    ("CCOC(CN(c1ccc(F)cc1)S(=O)(=O)c1ccc(F)cc1F)OCC", 1),
    ("C=C1C[C@]23C[C@@]1(O)CC[C@H]2[C@@]12C=C[C@H](O)[C@@](C)(C(=O)O1)[C@H]2[C@@H]3C(=O)O", 0.998),
    ("Cc1o[nH]c(=O)c1CC(N)C(=O)O (stereo not given)", 0.998),
    ("COc1cc(C(C)=O)cc(OC)c1O", 0.991),
    ("CN(C)C1C(=O)C(C(N)=O)=C(O)C2(O)C(=O)C3=C(O)c4c(O)ccc(Cl)c4C(C)(O)C3CC12 (stereo not given)", 1),
]

The value of normalized growth measured for the compound `CC(=O)c1cc(CC=C(C)C)c(O)c(CC=C(C)C)c1` turned out to be 0.924

Record CC(C)CCCC(C)C1CC[C@@]2(C)C3=C(CC[C@]12C)[C@@]1(C)CC[C@H](O)C(C)(C)C1CC3 (stereo not given in full) , field normalized growth: 1.01

Measured normalized growth, `CCCSc1ccc2nc(NC(=O)OC)[nH]c2c1` : 0.995

Reported normalized growth for O=C(O)CSC1CCS(=O)(=O)C1 (stereo not given) was 1.02
